target: SARS-CoV-2 RBD (WT) (SARS-CoV-2 Wuhan-Hu-1 (wildtype), UniProt P0DTC2); assay: BLI; details: both partners purified
Listing: koff of selected binders
MEASURED METRIC: koff (s⁻¹)

INSERT INTO results (binder, unit_spec, assay_result) VALUES
  ('H16 (antibody, V domains shown, human IgG1) VH: QLQLQESGPGLVKPSETLSLTCTVSGGSISSSSYYWGWIRQPPGKGLEWIGSIYYSGSTYYNPSLKSRVTISVDTSKNQFSLKLSSVTAADTAVYYCARREWLRGPFDYWGQGTLVTVSS VL: NFMLTQPHSVSESPGKTVTISCTRSSGSIASNYVQWYQQRPGSSPTTVIYEDNQRPSGVPDRFSGSIDSSSNSASLTISGLKTEDEADYYCQSYDSSNVVFGGGTKLTVL', 's⁻¹', 0.0498),
  ('H4 (antibody, V domains shown) VH: EVQLVESGGGLVQPGGSLRLSCAASGFTFSSYWMSWVRQAPGKGLEWVANIKQDGSEKYYVDSVKGRFTISRDNAKNSLYLQMNSLRAEDTAVYYCASQLWLRGAFDIWGQGTMVTVSS VL: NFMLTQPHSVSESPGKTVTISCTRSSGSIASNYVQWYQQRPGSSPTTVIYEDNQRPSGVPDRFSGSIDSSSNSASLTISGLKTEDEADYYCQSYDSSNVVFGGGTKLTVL', 's⁻¹', 0.0105),
  ('H5 (antibody, V domains shown, human IgG1) VH: QVQLVESGGGLVKPGGSLRLSCAASGFTFSDYYMSWIRQAPGKGLEWVSYISSSGSTIYYADSVKGRFTISRDNAKNSLYLQMNSLRAEDTAVYYCARAKWLRGHFDYWGQGTLVTVSS VL: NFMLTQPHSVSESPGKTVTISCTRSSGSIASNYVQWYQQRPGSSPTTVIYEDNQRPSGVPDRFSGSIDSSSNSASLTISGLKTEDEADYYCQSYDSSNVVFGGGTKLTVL', 's⁻¹', 0.195),
  ('H14 (antibody, V domains shown, human IgG1) VH: QVQLQESGPGLVKPSQTLSLTCTVSGGSISSGGYYWSWIRQHPGKGLEWIGYIYYSGSTYYNPSLKSLVTISVDTSKNQFSLKLSSVTAADTAVYYCARKGWLRGAFDIWGQGTMVTVSS VL: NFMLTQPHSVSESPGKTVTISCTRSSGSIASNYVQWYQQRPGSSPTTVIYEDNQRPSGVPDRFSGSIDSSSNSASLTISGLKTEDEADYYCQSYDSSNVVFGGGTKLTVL', 's⁻¹', 0.0182);
